Where do these numbers come from? They come from patent US20230271956A1.

# pIC50 listing for each entry below
tgt: ACSS2 (Homo sapiens, UniProt Q9NR19)
Construct: endogenous fatty acid synthesis activity in the human HCT-15 cancer cell line; endogenous in cells; host or cells: HCT-15
Sequence (Q9NR19 whole entry): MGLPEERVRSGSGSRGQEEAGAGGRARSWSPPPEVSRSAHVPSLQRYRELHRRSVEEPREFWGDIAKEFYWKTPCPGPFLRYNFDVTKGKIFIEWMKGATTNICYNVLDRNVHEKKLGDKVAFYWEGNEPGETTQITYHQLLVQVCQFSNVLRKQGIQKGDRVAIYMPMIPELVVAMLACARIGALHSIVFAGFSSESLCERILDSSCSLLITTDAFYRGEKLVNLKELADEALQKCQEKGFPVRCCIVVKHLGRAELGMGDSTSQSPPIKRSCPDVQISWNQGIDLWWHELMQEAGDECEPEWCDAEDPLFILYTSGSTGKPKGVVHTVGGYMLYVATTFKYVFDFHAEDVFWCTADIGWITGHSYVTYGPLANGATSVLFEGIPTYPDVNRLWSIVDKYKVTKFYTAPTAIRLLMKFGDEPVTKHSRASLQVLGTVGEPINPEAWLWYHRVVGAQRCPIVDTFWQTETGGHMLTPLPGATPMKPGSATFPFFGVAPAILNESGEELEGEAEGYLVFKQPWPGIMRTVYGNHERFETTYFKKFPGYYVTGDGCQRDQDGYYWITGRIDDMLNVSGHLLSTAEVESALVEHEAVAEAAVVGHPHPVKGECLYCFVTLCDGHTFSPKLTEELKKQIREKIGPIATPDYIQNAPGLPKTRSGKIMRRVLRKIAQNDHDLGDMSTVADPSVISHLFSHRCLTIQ
method: Cellular assay of 14C acetate incorporation into histones (IC50 ACSS2 cellular histone)
Type: cell-based
condition set: HCT-15 cells
pIC50: −log10 of the molar value.
metric name: pIC50

[[record]]
molecule = "CCn1cnc(NC(=O)c2cc3c(nc2C)nc(C(O)(c2ccccc2F)c2ccc(OC(F)F)cc2F)n3CC)n1 (single isomer, unassigned) [Compound 96]"
readout_value = "7.00 to 8.00"

[[record]]
molecule = "CCn1ncc(NC(=O)c2cc3c(nc2OC)nc(C(O)(c2ccccc2)c2ccccc2)n3CC)n1"
readout_value = "7.00 to 8.00"

[[record]]
molecule = "CCn1cnc(NC(=O)c2cc3c(nc2OC)nc(C(O)(c2ccc(OC(F)F)cc2)c2ccccc2F)n3CC)n1 (racemic) [Compound 87]"
readout_value = "8.00 to 9.00"

[[record]]
molecule = "CCn1ccc(NC(=O)c2cc3c(nc2OC)nc(C(O)(c2ccccc2)c2ccccc2)n3CC)n1"
readout_value = "8.00 to 9.00"

[[record]]
molecule = "CCn1cnc(NC(=O)c2cc3c(nc2OC)nc(C(O)(c2ccccc2)c2ccc(C)s2)n3CC)n1 (racemic)"
readout_value = "9.00 to 11.00"

[[record]]
molecule = "CCn1c(C(O)(c2ccccc2)c2ccccc2)nc2nc(Cl)c(C(=O)Nc3cnn(CCOC)c3)cc21"
readout_value = "7.00 to 8.00"

[[record]]
molecule = "CCn1cc(NC(=O)c2cc3c(nc2F)nc(C(O)(c2ccccc2)c2ccccc2)n3CC)cn1"
readout_value = "8.00 to 9.00"

[[record]]
molecule = "CCn1cc(NC(=O)c2cc3c(nc2OC)nc(C(O)(c2ccccc2)c2ccc(OC(F)F)cc2F)n3CC)cn1 (racemic)"
readout_value = "8.00 to 9.00"

[[record]]
molecule = "CCn1cnc(NC(=O)c2cc3c(nc2OC)nc(C(O)(c2ccccc2F)c2ccc(OC(F)F)cc2F)n3CC)n1 (racemic) [Compound 94]"
readout_value = "8.00 to 9.00"

[[record]]
molecule = "CCn1cnc(NC(=O)c2cc3c(nc2C)nc(C(O)(c2ccccc2F)c2ccccc2F)n3CC)n1"
readout_value = "8.00 to 9.00"

[[record]]
molecule = "CCc1c(C(O)(c2ccccc2F)c2ccccc2F)nc2cc(OC)c(C(=O)Nc3cnn(CC)c3)cn12"
readout_value = "8.00 to 9.00"

[[record]]
molecule = "CCn1cnc(NC(=O)c2cc3c(nc2C)nc(C(O)(c2ccccc2F)c2ccc(OC(F)F)cc2F)n3CC)n1 (single isomer, unassigned) [Compound 95]"
readout_value = "7.00 to 8.00"

[[record]]
molecule = "CCn1ccc(NC(=O)c2cc3c(nc2Cl)nc(C(O)(c2ccccc2)c2ccccc2)n3CC)n1"
readout_value = "9.00 to 11.00"

[[record]]
molecule = "CCc1nnc(CNC(=O)c2cc3c(nc2OC)nc(C(O)(c2ccccc2)c2ccccc2)n3CC)o1"
readout_value = "7.00 to 8.00"

[[record]]
molecule = "CCc1c(C(O)(c2ccccc2F)c2ccccc2F)nc2cc(Cl)c(C(=O)Nc3ncn(CC)n3)cn12"
readout_value = "9.00 to 11.00"

[[record]]
molecule = "CCc1c(C(O)(c2ccccc2)c2ccccc2)nn2cc(Cl)c(C(=O)Nc3ncn(CC)n3)cc12"
readout_value = "9.00 to 11.00"

[[record]]
molecule = "CCc1c(C(O)(c2ccccc2)c2ccccc2)nc2ccc(C(=O)Nc3ncn(CC)n3)cn12"
readout_value = "9.00 to 11.00"

[[record]]
molecule = "CCn1cnc(NC(=O)c2cc3c(nc2Cl)nc(C(O)(c2ccccc2F)c2ccccc2F)n3CC)n1"
readout_value = "8.00 to 9.00"

[[record]]
molecule = "CCn1cc(NC(=O)c2cc3c(nc2Cl)nc(C(O)(c2ccccc2)c2ccc(OC(F)F)cc2)n3CC)cn1 (racemic)"
readout_value = "7.00 to 8.00"

[[record]]
molecule = "CCn1c(C(O)(c2ccccc2)c2ccccn2)nc2nc(OC)c(C(=O)Nc3ncn(CCO)n3)cc21 (racemic)"
readout_value = "7.00 to 8.00"

[[record]]
molecule = "CCc1cnc(NC(=O)c2cc3c(nc2OC)nc(C(O)(c2ccccc2)c2ccccc2)n3CC)o1"
readout_value = "9.00 to 11.00"

[[record]]
molecule = "CCn1cc(NC(=O)c2cc3c(nc2Cl)nc(C(O)(c2ccccc2F)c2ccc(OC(F)F)cc2F)n3CC)cn1 (racemic)"
readout_value = "7.00 to 8.00"

[[record]]
molecule = "CCn1cnc(NC(=O)c2cc3c(nc2OC)nc(C(O)(c2ccc(OC(F)F)cc2)c2ccccc2F)n3CC)n1 (single isomer, unassigned) [Compound 75]"
readout_value = "8.00 to 9.00"

[[record]]
molecule = "CCc1nc(CNC(=O)c2cc3c(nc2OC)nc(C(O)(c2ccccc2)c2ccccc2)n3CC)no1"
readout_value = "7.00 to 8.00"

[[record]]
molecule = "CCn1c(C(O)(c2ccccc2)c2ccccc2)nc2nc(OC)c(C(=O)Nc3ncn(CCN)n3)cc21"
readout_value = "5.00 to 7.00"

[[record]]
molecule = "CCc1c(C(O)(c2ccccc2F)c2ccccc2F)nn2ccc(C(=O)Nc3ncn(CC)n3)cc12"
readout_value = "8.00 to 9.00"

[[record]]
molecule = "CCc1c(C(O)(c2ccccc2)c2ccccc2)nn2ccc(C(=O)Nc3cnn(CC)c3)cc12"
readout_value = "7.00 to 8.00"

[[record]]
molecule = "CCc1c(C(O)(c2ccccc2F)c2ccccc2F)nn2cc(Cl)c(C(=O)Nc3ncn(CC)n3)cc12"
readout_value = "9.00 to 11.00"


###

tgt: human rec ACSS2 (Homo sapiens, UniProt Q9NR19)
Construct: myc (C)
method: Biochemical activity ACSS2 assay (AMP-Glo)
condition set: human recombinant ACSS2, AMP-Glo, 180 min at 37° C.
metric name: IC50

[[record]]
molecule = "CCc1c(C(O)(c2ccccc2)c2ccccc2)nn2cc(OC)c(C(=O)Nc3ncn(CC)n3)cc12 [Compound 11]"
metric_name = "IC50"
readout_value = "1 to 10 nM"

[[record]]
molecule = "CCn1cnc(NC(=O)c2cc3c(nc2OC)nc(C(O)(c2ccccc2F)c2ccc(OC(F)F)cc2F)n3CC)n1 (racemic) [Compound 94]"
metric_name = "IC50"
readout_value = "1 to 10 nM"

[[record]]
molecule = "CCn1cnc(NC(=O)c2cc3c(nc2OC)nc(C(O)(c2ccccc2F)c2ccccc2F)n3CC)n1 [Compound 102]"
metric_name = "IC50"
readout_value = "0.01 to 1 nM"

[[record]]
molecule = "CCn1cnc(NC(=O)c2cc3c(nc2OC)nc(C(O)(c2ccccc2)c2nccs2)n3CC)n1 (racemic) [Compound 44]"
metric_name = "IC50"
readout_value = "1 to 10 nM"

[[record]]
molecule = "CCc1c(C(O)(c2ccccc2)c2ccc(C)s2)nc2cc(OC)c(C(=O)Nc3ncn(CC)n3)cn12 (single isomer, unassigned) [Compound 27]"
metric_name = "IC50"
readout_value = "1 to 10 nM"

[[record]]
molecule = "CCc1nnc(CNC(=O)c2cc3c(nc2OC)nc(C(O)(c2ccccc2)c2ccccc2)n3CC)o1 [Compound 62]"
metric_name = "IC50"
readout_value = "10 to 100 nM"

[[record]]
molecule = "CCc1c(C(O)(c2ccccc2F)c2ccccc2F)nn2cc(C)c(C(=O)Nc3ncn(CC)n3)cc12 [Compound 3]"
metric_name = "IC50"
readout_value = "1 to 10 nM"


###

# IC50 listing for each entry below
tgt: human rec ACSS2 (Homo sapiens, UniProt Q9NR19)
Construct: myc (C)
method: Biochemical activity ACSS2 assay (AMP-Glo)
condition set: human recombinant ACSS2, AMP-Glo, 180 min at 37° C.
metric name: IC50

[[record]]
compound = "CCn1cnc(NC(=O)c2cc3c(nc2F)nc(C(O)(c2ccccc2)c2ccccc2)n3CC)n1"
readout_value = "1 to 10 nM"

[[record]]
compound = "CCn1cnc(NC(=O)c2cc3c(nc2OC)nc(C(O)(c2ccccc2)c2ccccc2)n3C)n1"
readout_value = "0.01 to 1 nM"

[[record]]
compound = "CCc1c(C(O)(c2ccccc2)c2ccccc2)nn2ccc(C(=O)Nc3cnn(CC)c3)cc12"
readout_value = "10 to 100 nM"

[[record]]
compound = "CCn1c(C(O)(c2ccccc2)c2ccccn2)nc2nc(OC)c(C(=O)Nc3ncn(CCOC)n3)cc21 (racemic)"
readout_value = "100 to 10000 nM"

[[record]]
compound = "CCn1cnc(NC(=O)c2cc3c(nc2Cl)nc(C(O)(c2ccccc2)c2ccccc2)n3CC)c1"
readout_value = "1 to 10 nM"

[[record]]
compound = "CCn1ccc(NC(=O)c2cc3c(nc2OC)nc(C(O)(c2ccccc2)c2ccccc2)n3CC)n1"
readout_value = "1 to 10 nM"

[[record]]
compound = "CCn1ncc(NC(=O)c2cc3c(nc2OC)nc(C(O)(c2ccccc2)c2ccccc2)n3CC)n1"
readout_value = "10 to 100 nM"

